test system: Noggin (protein binding on small-molecule microarray); assay: small molecules binding Noggin protein – biochemical, 635/667 nm fluorescence, primary screen (AID 1095); settings: 635 nm fluorescence, higher = more signal;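 also: score merges 667 nm feature fluorescence with signal to noise over triplicate slides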
Reported composite z-score is given for each of the following compounds.
Value Kind: composite z-score

compound="CC1C=C(CCCO)C=C(C(=O)OCCS(C)(=O)=O)C(C(=O)OCCS(C)(=O)=O)=CN1Cc1cccc(OC(F)(F)F)c1 (centres undefined)" observed_value=0.0266
compound=NCCCCCCNC(=O)[C@H]1C[C@H]2C(=O)N3CCC[C@H]3C(=O)N2[C@H]1c1ccc(O)cc1 observed_value=1.41
compound=COc1ccc(C#Cc2ccc3c(c2)[C@]2(C(=O)N3)[C@H](C(N)=O)[C@H]3C(=O)O[C@H](c4ccccc4)[C@H](c4ccccc4)N3[C@@H]2c2ccc(O)cc2)cc1 observed_value=0.176
compound="CC(C)C(CO)N1C(=O)[C@@H]2[C@H]3C(=O)OCC=C[C@H]3OC23C=CCN(CCN2CCOCC2)C(=O)[C@@H]13 (some centres undefined)" observed_value=0.521

----------
test: compound effects on lung adenocarcinoma cell viability – A549, calcein-AM fluorescence, 48 h, basal, profiling panel (AID 1162); details: higher = more signal; also: test concentration not given here
Value Kind: z-score

compound=COC(=O)[C@@]1(Cc2ccc(OC)cc2)[C@H]2c3cc(C(=O)N4CCCC4)n(CCF)c3C[C@H]2CN1C(=O)c1ccccc1 value_kind=z-score observed_value=-1.41
compound="CC(C)C(CO)N1C(=O)[C@@H]2[C@H]3C(=O)OCC=C[C@H]3OC23C=CCN(Cn2nnc4ccccc42)C(=O)[C@@H]13 (stereo partly drawn)" value_kind=z-score observed_value=-0.746
compound=CC(C)C[C@@H]1NC(=O)[C@@H]2C[C@H](C(=O)NCCCC[N+](C)(C)C)[C@H](c3cccc(OCCO)c3)N2C1=O value_kind=z-score observed_value=-0.316
compound=COc1ccc(CCNC(=O)[C@@H]2c3ccccc3C(=O)N(Cc3ccccc3C(F)(F)F)[C@H]2c2ccc(CO)cc2)cc1 value_kind=z-score observed_value=0.0059
compound=COCCOC(=O)N1C(=O)[C@@]2(c3ccccc31)[C@H](c1ccc(OCCO)cc1)N1[C@H](c3ccccc3)[C@H](c3ccccc3)OC(=O)[C@H]1[C@@H]2C(=O)NC[C@H](O)c1ccccc1 value_kind=z-score observed_value=-0.332
compound="CC1(C)[C@@H]2CC(C(O)C3C=CC4C(=O)N(c5ccccc5)C(=O)C4N3Nc3ccccc3F)=C[C@@H]1C2 (stereo partly drawn)" value_kind=z-score observed_value=0.604
compound="CC(C)CCC[C@@H](C)[C@H]1CC[C@@]2(C)C3=C(CC[C@]12C)[C@@]1(C)CC[C@H](OC(=O)C(C)(C)C)C(C)(C)C1CC3 (stereo partly drawn)" value_kind=z-score observed_value=2.49
compound=C=C(CCCC)/C(=C/C[C@H](OC(=O)c1ccncc1)c1ccc(CO)o1)c1cc(C(=O)OC)ccc1OC value_kind=z-score observed_value=-0.705
compound=C[C@H]1ON(c2ccccc2)[C@@H](c2ccccc2)[C@@H]1C(=O)N1C(=O)OC[C@@H]1c1ccccc1 value_kind=z-score observed_value=-0.279
compound=COc1ccc(C(=O)Nc2ccc(CN3C(=O)[C@]4(O[C@H](CCn5cc([C@H](O)c6ccccc6)nn5)[C@@H]([Si](C)(C)c5ccc(OC)cc5)[C@@H]4C)c4ccccc43)cc2)cc1 value_kind=z-score observed_value=-0.0731
compound=[N-]=[N+]=NCc1ccccc1[C@H]1OC(c2ccc(OCCCO)cc2)=N[C@@]1(Cc1ccccc1N=[N+]=[N-])C(=O)NCCN1CCOCC1 value_kind=z-score observed_value=-0.71
compound=COc1ccc(C#Cc2ccc3c(c2)[C@]2(C(=O)N3)[C@H](C(N)=O)[C@H]3C(=O)O[C@H](c4ccccc4)[C@H](c4ccccc4)N3[C@@H]2c2ccc(O)cc2)cc1 value_kind=z-score observed_value=-0.765
compound=CCCCC(=C=CC[C@H](O)c1cccc(OCCO)c1)C[C@H](O)COCc1ccccc1 value_kind=z-score observed_value=0.803
compound="CC(C)CCC[C@@H](C)[C@H]1CC[C@@]2(C)C3=C(CC[C@]12C)[C@@]1(C)CC[C@H](OC(=O)c2ccc(N)cc2)C(C)(C)C1CC3 (stereo partly drawn)" value_kind=z-score observed_value=1.22
compound=COc1ccc([Si](C)(C)[C@H]2[C@H](CCO)O[C@@]3(C(=O)N(Cc4cccc(N5CCOC5=O)c4)c4ccccc43)[C@@H]2C)cc1 value_kind=z-score observed_value=-0.162
compound="CC[C@@H]1[C@@H]2C3C(=O)N(CC)C(=O)C3CC(=O)[C@@H]2[C@H](c2ccc(C)cc2)N1S(=O)(=O)c1ccc(C)cc1 (stereo partly drawn)" value_kind=z-score observed_value=0.63
compound=CC(C)N1C(=O)c2ccccc2[C@](C)(C(=O)O)[C@@H]1c1ccc(CO)cc1 value_kind=z-score observed_value=-0.786
compound=CCC[C@@H]1C[C@@]1(CCC)[C@@H](NC(=O)c1cccs1)c1ccc(Cl)cc1 value_kind=z-score observed_value=-0.162
compound=CCCNC(=O)[C@@]1(Sc2ccc(C)cc2)CC(=O)N(Cc2ccccc2)[C@@H]1c1ccc(CO)cc1I value_kind=z-score observed_value=-0.422
compound=CCCN1C(=O)[C@@H]2Cc3c([nH]c4ccccc34)[C@@H](c3cccc(O)c3)N2C1=O value_kind=z-score observed_value=-0.362
compound=O=C1O[C@H](c2ccccc2)[C@H](c2ccccc2)N2[C@H]1[C@@H](C(=O)NC[C@H](O)c1ccccc1)[C@]1(C(=O)Nc3ccccc31)[C@H]2c1ccccc1OCCO value_kind=z-score observed_value=-1.78
compound=COc1ccc([Si](C)(C)[C@H]2[C@H](CCn3cc(CCO)nn3)O[C@@]3(C(=O)N(Cc4cccc(N5C(=O)c6cccc7cccc5c67)c4)c4ccccc43)[C@@H]2C)cc1 value_kind=z-score observed_value=-1.05
compound=COCCCNC(=O)[C@@]1(Cc2ccccc2CN=[N+]=[N-])N=C(c2ccc(OCCCO)cc2)O[C@H]1c1ccccc1N=[N+]=[N-] value_kind=z-score observed_value=-0.121
compound="O=C1C2C=CC(C(O)c3cccc4ccccc34)N(Nc3ccccc3)C2C(=O)N1c1ccccc1 (stereo not drawn)" value_kind=z-score observed_value=0.112
compound=NCCCCCCNC(=O)[C@H]1C[C@H]2C(=O)N3CCC[C@H]3C(=O)N2[C@H]1c1ccc(O)cc1 value_kind=z-score observed_value=-0.194
compound=C=CCNC(=O)[C@H]1[C@@H]2C(=O)O[C@@H](c3ccccc3)[C@@H](c3ccccc3)N2[C@@H](c2ccc(OCCO)cc2)[C@]12C(=O)N(C(=O)OCCOC)c1ccc(C#CC3=CCCCC3)cc12 value_kind=z-score observed_value=-0.906
compound=NC(=O)NCC#Cc1ccc2c(c1)[C@]1(C(=O)N2)[C@H](c2ccc(O)cc2)N2[C@H](c3ccccc3)[C@H](c3ccccc3)OC(=O)[C@H]2[C@@H]1C(=O)NC[C@H](O)c1ccccc1 value_kind=z-score observed_value=0.544
compound=O=C(NCc1ccccc1)[C@]1(Cc2ccccc2)N=C(c2ccc(OCCCO)cc2)O[C@@H]1c1ccccc1 value_kind=z-score observed_value=-2.44

----------
composite z-score by entry:
molecular target: Neurogenic locus notch homolog protein 2 (Homo sapiens) (UniProt Q04721); experiment: small molecules binding Notch2 protein – biochemical, small-molecule microarray, 635 nm fluorescence, stem cell growth factors, primary screen (AID 1073); conditions: higher = more signal
Sequence (Q04721 whole entry, looked up): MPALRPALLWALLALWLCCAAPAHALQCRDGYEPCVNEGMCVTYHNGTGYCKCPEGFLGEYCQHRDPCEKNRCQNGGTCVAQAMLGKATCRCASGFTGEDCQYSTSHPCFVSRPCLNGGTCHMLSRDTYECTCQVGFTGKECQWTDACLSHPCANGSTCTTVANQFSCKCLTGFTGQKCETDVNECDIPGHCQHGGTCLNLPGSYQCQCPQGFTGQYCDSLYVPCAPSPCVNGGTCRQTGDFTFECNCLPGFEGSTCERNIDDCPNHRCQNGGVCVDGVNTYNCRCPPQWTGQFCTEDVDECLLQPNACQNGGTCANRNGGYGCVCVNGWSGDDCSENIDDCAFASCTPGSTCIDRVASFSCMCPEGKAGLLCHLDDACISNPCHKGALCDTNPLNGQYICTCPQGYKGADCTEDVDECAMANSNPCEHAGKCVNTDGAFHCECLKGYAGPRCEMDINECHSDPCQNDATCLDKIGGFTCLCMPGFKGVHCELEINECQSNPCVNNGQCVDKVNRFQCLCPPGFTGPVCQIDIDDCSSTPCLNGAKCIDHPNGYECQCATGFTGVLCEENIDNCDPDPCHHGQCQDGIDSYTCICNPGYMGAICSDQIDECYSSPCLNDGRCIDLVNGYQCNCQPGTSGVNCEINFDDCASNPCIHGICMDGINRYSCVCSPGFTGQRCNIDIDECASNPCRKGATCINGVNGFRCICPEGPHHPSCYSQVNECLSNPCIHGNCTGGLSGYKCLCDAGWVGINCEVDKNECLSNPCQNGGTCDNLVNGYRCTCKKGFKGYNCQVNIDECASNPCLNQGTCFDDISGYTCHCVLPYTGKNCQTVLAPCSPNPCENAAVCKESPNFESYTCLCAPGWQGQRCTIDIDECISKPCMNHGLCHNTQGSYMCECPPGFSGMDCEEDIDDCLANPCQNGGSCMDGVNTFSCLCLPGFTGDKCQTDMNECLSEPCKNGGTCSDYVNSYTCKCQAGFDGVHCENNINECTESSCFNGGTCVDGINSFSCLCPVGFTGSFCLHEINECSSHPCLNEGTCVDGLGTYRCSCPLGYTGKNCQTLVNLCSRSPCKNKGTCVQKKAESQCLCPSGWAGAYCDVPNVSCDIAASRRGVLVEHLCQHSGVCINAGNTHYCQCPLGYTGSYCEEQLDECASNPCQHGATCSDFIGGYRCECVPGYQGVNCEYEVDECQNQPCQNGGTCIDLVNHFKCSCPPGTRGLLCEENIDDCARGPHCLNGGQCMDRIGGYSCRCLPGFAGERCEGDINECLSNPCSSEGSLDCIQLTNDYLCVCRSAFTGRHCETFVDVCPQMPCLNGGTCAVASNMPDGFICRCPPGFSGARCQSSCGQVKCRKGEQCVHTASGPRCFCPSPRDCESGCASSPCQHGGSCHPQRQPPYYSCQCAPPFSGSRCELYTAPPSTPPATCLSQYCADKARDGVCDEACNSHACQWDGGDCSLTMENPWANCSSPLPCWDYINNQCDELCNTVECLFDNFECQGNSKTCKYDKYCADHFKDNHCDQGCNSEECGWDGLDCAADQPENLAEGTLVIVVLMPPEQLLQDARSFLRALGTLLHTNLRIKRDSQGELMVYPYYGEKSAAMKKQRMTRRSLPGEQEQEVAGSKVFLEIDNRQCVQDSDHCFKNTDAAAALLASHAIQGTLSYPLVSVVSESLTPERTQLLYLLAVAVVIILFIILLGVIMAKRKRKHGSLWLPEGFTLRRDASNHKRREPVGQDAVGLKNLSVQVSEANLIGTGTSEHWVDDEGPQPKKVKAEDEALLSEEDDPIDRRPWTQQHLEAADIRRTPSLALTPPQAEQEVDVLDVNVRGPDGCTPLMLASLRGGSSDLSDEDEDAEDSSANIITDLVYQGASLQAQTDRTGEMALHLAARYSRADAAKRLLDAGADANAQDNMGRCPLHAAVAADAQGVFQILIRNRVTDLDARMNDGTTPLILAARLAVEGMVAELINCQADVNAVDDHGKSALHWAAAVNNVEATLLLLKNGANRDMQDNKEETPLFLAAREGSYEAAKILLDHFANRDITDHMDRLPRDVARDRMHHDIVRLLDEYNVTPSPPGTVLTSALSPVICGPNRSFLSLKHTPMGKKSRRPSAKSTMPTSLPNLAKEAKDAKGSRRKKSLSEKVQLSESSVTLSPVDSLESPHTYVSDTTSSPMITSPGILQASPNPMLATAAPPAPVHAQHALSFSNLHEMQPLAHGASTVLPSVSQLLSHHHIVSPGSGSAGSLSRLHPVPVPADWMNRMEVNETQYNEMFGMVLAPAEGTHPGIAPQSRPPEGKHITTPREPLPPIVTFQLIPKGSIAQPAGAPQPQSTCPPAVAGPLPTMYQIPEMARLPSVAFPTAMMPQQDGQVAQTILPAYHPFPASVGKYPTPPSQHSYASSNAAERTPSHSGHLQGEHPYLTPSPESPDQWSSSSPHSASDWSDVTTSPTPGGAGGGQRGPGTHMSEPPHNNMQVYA
Value Kind: composite z-score

compound=O=C1c2ccccc2[C@](Cc2ccccc2I)(C(=O)NC2CC2)[C@H](c2ccc(CO)cc2)N1Cc1ccccc1Cl observed_value=1.23
compound=COCC(=C=CC[C@@H](O)c1ccccc1OCCO)C[C@@H](O)COCc1ccccc1 observed_value=-0.258
compound=O=C(NCc1ccccc1)[C@]1(Cc2ccccc2)N=C(c2ccc(OCCCO)cc2)O[C@@H]1c1ccccc1 observed_value=1.46
compound=Cc1ccc(S[C@]2(C(=O)NCCN3CCOCC3)CC(=O)N(C3Cc4ccccc4C3)[C@@H]2c2ccc(CO)cc2)cc1 observed_value=-0.746
compound=C[N+](C)(C)CCCC[C@@H]1NC(=O)[C@@H]2C[C@H](C(=O)NCCCCCNC(=O)CS)[C@H](c3cccc(OCCO)c3)N2C1=O observed_value=0.151
compound=NCCCCCCNC(=O)[C@H]1C[C@H]2C(=O)N3CCC[C@H]3C(=O)N2[C@H]1c1ccc(O)cc1 observed_value=-0.45
compound="CN1C(=O)C2C=CC(C(O)c3ccc(F)cc3)N(N3CCCCC3)C2C1=O (stereo not given)" observed_value=1.44
compound=O=C1C[C@@](C(=O)O)(c2ccc([N+](=O)[O-])cc2)[C@@H](c2ccc(CO)cc2)N1CC12CC3CC(CC(C3)C1)C2 observed_value=1.13
compound="O=C1NC(=O)C2C1C=CC(C(O)CCc1ccccc1)N2Nc1ccccn1 (stereo not given)" observed_value=1.07
compound=CN(C)C(=O)[C@@]1(CCS(=O)(=O)c2ccccc2)N=C(c2ccc(OCCCO)cc2)O[C@H]1c1ccccc1CN=[N+]=[N-] observed_value=1.33
compound=C=CCN1C(=O)[C@@]2(O[C@@H](CCn3cc([C@H](O)c4ccccc4)nn3)[C@H]([Si](C)(C)c3ccc(OC)cc3)[C@H]2C)c2cc(NC(=O)c3ccc(OC)cc3)ccc21 observed_value=0.147
compound=C=C(COC)C(=O)CC[C@H](OC(=O)c1ccccc1-c1ccccc1C(=O)O)c1ccc(CO)o1 observed_value=-0.532
compound=CCCCCCC#C[Si](O[C@H](c1ccccc1)c1cn(Cc2cccc(Cl)c2)nn1)(C(C)C)C(C)C observed_value=0.631
compound=Cc1ccc(N2C(=O)c3ccccc3[C@](C)(C(=O)NC(C)C)[C@@H]2c2ccc(CO)cc2)nc1 observed_value=-1.61
compound="C=CCC(OC(C)=O)[C@@H]1[C@@H](N(Cc2ccc(-c3ccccc3)cc2)C(=O)Cc2ccc(OC)cc2)c2cc(OCCCO)ccc2N1C(=O)c1ccc(-c2ccccc2)cc1 (stereo not given in full)" observed_value=-0.137
compound=CCCCC=C[C@@H](NC(=O)CCc1ccccc1)c1ccccc1 observed_value=1.11
compound=COCCOC(=O)N1C(=O)[C@@]2(c3cc(C#CCC(C(=O)OC)C(=O)OC)ccc31)[C@H](c1ccc(OCCO)cc1)N1[C@H](c3ccccc3)[C@H](c3ccccc3)OC(=O)[C@H]1[C@@H]2C(N)=O observed_value=1.15
compound=COC(=O)C(CC#Cc1ccc2c(c1)[C@]1(C(=O)N2)[C@H](c2ccc(O)cc2)N2[C@H](c3ccccc3)[C@H](c3ccccc3)OC(=O)[C@H]2[C@@H]1C(N)=O)C(=O)OC observed_value=-1.06
compound="CCN(CC)c1ccc(N2CC=CC34O[C@@H]5/C=C\\CCCOC(=O)C5[C@H]3C(=O)N(CCCCCCO)[C@@H]4C2=O)cc1 (stereo not given in full)" observed_value=-0.946
compound=COc1ccccc1CN1C(=O)c2ccccc2[C@](Cc2ccccc2I)(C(=O)NCCN2CCOCC2)[C@@H]1c1ccc(CO)cc1 observed_value=1.37
compound=COCCCNC(=O)[C@@]1(Cc2ccccc2I)c2ccccc2C(=O)N(Cc2ccccc2Cl)[C@H]1c1ccc(CO)cc1 observed_value=0.153
compound=[N-]=[N+]=NCc1ccccc1[C@H]1OC(c2ccc(OCCCO)cc2)=N[C@@]1(Cc1ccccc1)C(N)=O observed_value=1.05
compound="CC(C)c1ccc(NN2C(C(O)c3cccs3)C=CC3C(=O)N(c4ccccc4)C(=O)C32)cc1 (stereo not given)" observed_value=1.66
compound=CC(=O)NCCCC[C@@H]1NC(=O)[C@@H]2C[C@H](C(=O)NCCCC[N+](C)(C)C)[C@H](c3cccc(OCCO)c3)N2C1=O observed_value=-0.525
compound=COCC(=C=CC[C@@H](O)c1ccccc1OCCO)C[C@@H](O)c1ccccn1 observed_value=0.12
compound=O=c1c2ccc(Br)cc2nc(-c2ccccc2)n1Cc1cccc(O)c1 observed_value=0.701
compound="O=C1NC(=O)C2C1C=CC(C(O)c1ccc3c(c1)OCO3)N2Nc1ccc(Cl)cc1Cl (stereo not given)" observed_value=1.22
compound=COc1ccc([Si](C)(C)[C@@H]2[C@@H](CC(=O)N3Cc4ccccc4C[C@H]3CO)O[C@]3(C(=O)N(Cc4cccc(N5CCCCC5=O)c4)c4ccccc43)[C@H]2C)cc1 observed_value=0.523
compound=C=CCNC(=O)[C@H]1[C@@H]2C(=O)O[C@@H](c3ccccc3)[C@@H](c3ccccc3)N2[C@@H](c2ccc(OCCO)cc2)[C@]12C(=O)N(C(=O)OCCOC)c1ccc(C#CC3=CCCCC3)cc12 observed_value=0.844
compound=C=C(/C(=C/C[C@@H](OC(=O)c1ccncc1)c1cccc(OCCO)c1)c1cc(C(=O)OC)ccc1OC)C(C)C observed_value=0.868
